The reported numbers originate from patent US11987648B2.

molecular target: SST2 (Homo sapiens, UniProt P30874); assay: Hit Hunter cAMP XS+ assay, SST2 activation via Gi (reduction of forskolin-stimulated cAMP); type: cell-based; conditions: read-out: SST2 (EMax)
Sequence (P30874 whole entry): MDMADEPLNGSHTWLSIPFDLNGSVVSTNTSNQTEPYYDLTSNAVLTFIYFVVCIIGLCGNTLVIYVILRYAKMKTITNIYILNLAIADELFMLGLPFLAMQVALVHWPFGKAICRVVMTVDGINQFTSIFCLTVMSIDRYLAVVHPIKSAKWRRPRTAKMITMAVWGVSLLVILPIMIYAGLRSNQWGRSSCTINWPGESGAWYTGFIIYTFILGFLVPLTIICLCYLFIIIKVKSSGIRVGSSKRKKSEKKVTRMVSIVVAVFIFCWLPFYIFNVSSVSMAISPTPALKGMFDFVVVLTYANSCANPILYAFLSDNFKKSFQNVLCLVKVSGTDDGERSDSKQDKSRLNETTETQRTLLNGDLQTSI
*1 amine or outer side, *2 acyl side, *3 side chain or, on linkers, in order; H or OH if unused. Where a SMILES comes first, the peptide text is derived from it. Side-chain parts run from the residue outwards. [ ]: non-standard residue; d: D form. The star is where a group is joined. Ala(piperidin-4-yl) = O=C([C@H](CC1CCN([*:3])CC1)N[*:1])[*:2]; dTrp(4-OMe) = COc1cccc2[nH]cc(C[C@@H](N)C(=O)O)c12; dTrp(4-Me) = Cc1cccc2[nH]cc(C[C@@H](N)C(=O)O)c12; Ala(piperazin-1-yl) = N[C@@H](CN1CCNCC1)C(=O)O; Phe(3-Cl) = N[C@@H](Cc1cccc(Cl)c1)C(=O)O; Morpholine(3S-CO) = O=C(O)[C@@H]1COCCN1; Ethylenediamine = C(CN[*:2])N[*:1]; d(hPhe) = N[C@H](CCc1ccccc1)C(=O)O; Hyp = O=C(O)[C@@H]1C[C@@H](O)CN1; hPhe = N[C@@H](CCc1ccccc1)C(=O)O; 3Pal = N[C@@H](Cc1cccnc1)C(=O)O; Tic = O=C(O)[C@@H]1Cc2ccccc2CN1; Benzyl(4-Cl) = Clc1ccc(C*)cc1; Phg = N[C@H](C(=O)O)c1ccccc1; CO = O=C([*:1])[*:2]; Bn = c1ccc(C*)cc1
I'd be grateful if you could share measured Emax for these entries.
Give the number first and the unit second.

[Q] Hello, I am looking for reported Emax with SST2 (Homo sapiens, UniProt P30874) for COc1cccc2[nH]cc(C[C@H]3NC(=O)[C@H](CCc4ccccc4)NC(=O)[C@@H]4COCCN4C(=O)[C@@H]4Cc5ccccc5CN4C(=O)[C@H](Cc4ccc(OCc5ccccc5)cc4)NC(=O)[C@H](CN4CCNCC4)NC3=O)c12 [Example 68] (cyclo([Tic][Morpholine(3S-CO)][hPhe][dTrp(4-OMe)][Ala(piperazin-1-yl)]Y(Bn))) . Could you help?
[A] 99.1%

[Q] Hello, I am looking for reported Emax with SST2 (Homo sapiens, UniProt P30874) for Cc1cccc2[nH]cc(C[C@H]3NC(=O)[C@H](c4ccccc4)NC(=O)[C@@H]4C[C@@H](OC(=O)NCCN)CN4C(=O)[C@H](Cc4ccccc4)NC(=O)[C@H](Cc4ccc(OCc5ccccc5)cc4)NC(=O)[C@H](CC4CCNCC4)NC3=O)c12 [Example 4] (cyclo(F[Hyp]([CO-Ethylenediamine])[Phg][dTrp(4-Me)][Ala(piperidin-4-yl)]Y(Bn))) . Could you help?
[A] 103%

[Q] Hello, I am looking for reported Emax with SST2 (Homo sapiens, UniProt P30874) for NCCNC(=O)O[C@@H]1C[C@H]2C(=O)N[C@@H](CCc3ccccc3)C(=O)N[C@H](Cc3c[nH]c4ccccc34)C(=O)N[C@@H](CC3CCNCC3)C(=O)N[C@@H](Cc3ccc(OCc4ccccc4)cc3)C(=O)N[C@@H](Cc3cccc(Cl)c3)C(=O)N2C1 [Example 41] (cyclo([Hyp]([CO-Ethylenediamine])[hPhe][dW][Ala(piperidin-4-yl)]Y(Bn)[Phe(3-Cl)])) . Could you help?
[A] 102%

[Q] Hello, I am looking for reported Emax with SST2 (Homo sapiens, UniProt P30874) for NCCNC(=O)O[C@@H]1C[C@H]2C(=O)N[C@@H](CCc3ccccc3)C(=O)N[C@H](Cc3c[nH]c4ccccc34)C(=O)N[C@@H](CC3CCNCC3)C(=O)N[C@@H](Cc3ccc(OCc4ccccc4)cc3)C(=O)N[C@@H](Cc3ccccc3)C(=O)N2C1 [Example 28] (cyclo(F[Hyp]([CO-Ethylenediamine])[hPhe][dW][Ala(piperidin-4-yl)]Y(Bn))) . Could you help?
[A] 99.6%

[Q] Hello, I am looking for reported Emax with SST2 (Homo sapiens, UniProt P30874) for NCCNC(=O)O[C@@H]1C[C@H]2C(=O)N[C@@H](CCc3ccccc3)C(=O)N[C@H](Cc3c[nH]c4ccccc34)C(=O)N[C@@H](CC3CCNCC3)C(=O)N[C@@H](Cc3ccc(OCc4ccc(Cl)cc4)cc3)C(=O)N[C@@H](Cc3cccnc3)C(=O)N2C1 [Example 40] (cyclo([3Pal][Hyp]([CO-Ethylenediamine])[hPhe][dW][Ala(piperidin-4-yl)]Y(Benzyl(4-Cl)))) . Could you help?
[A] 91.2%

[Q] Hello, I am looking for reported Emax with SST2 (Homo sapiens, UniProt P30874) for NCCNC(=O)O[C@@H]1C[C@H]2C(=O)N[C@H](CCc3ccccc3)C(=O)N[C@@H](Cc3c[nH]c4ccccc34)C(=O)N[C@@H](CN3CCNCC3)C(=O)N[C@@H](Cc3ccc(OCc4ccccc4)cc3)C(=O)N[C@@H](Cc3cccnc3)C(=O)N2C1 [Example 33] (cyclo([3Pal][Hyp]([CO-Ethylenediamine])[d(hPhe)]W[Ala(piperazin-1-yl)]Y(Bn))) . Could you help?
[A] 13.4%

###

biological target: SST5 (Homo sapiens, UniProt P35346); test: Hit Hunter cAMP XS+ assay, SST5 activation via Gi (reduction of forskolin-stimulated cAMP); type: cell-based
Sequence (P35346 whole entry): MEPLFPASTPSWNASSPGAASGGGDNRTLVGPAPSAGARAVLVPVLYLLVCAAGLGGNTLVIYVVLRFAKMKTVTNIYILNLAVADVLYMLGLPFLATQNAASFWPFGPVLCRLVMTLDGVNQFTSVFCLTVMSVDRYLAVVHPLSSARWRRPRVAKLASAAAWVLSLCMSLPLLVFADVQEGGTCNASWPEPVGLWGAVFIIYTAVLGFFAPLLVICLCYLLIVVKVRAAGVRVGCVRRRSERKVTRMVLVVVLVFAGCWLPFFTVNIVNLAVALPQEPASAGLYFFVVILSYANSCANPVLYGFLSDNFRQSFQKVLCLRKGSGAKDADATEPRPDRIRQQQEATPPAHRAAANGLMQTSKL
pEC50: −log10 of the molar value. *1 amine or outer side, *2 acyl side, *3 side chain or, on linkers, in order; H or OH if unused. Where a SMILES comes first, the peptide text is derived from it. Side-chain parts run from the residue outwards. [ ]: non-standard residue; d: D form. The star is where a group is joined. Ala(piperidin-4-yl) = O=C([C@H](CC1CCN([*:3])CC1)N[*:1])[*:2]; Ethylenediamine = C(CN[*:2])N[*:1]; Hyp = O=C(O)[C@@H]1C[C@@H](O)CN1; hPhe = N[C@@H](CCc1ccccc1)C(=O)O; 3Pal = N[C@@H](Cc1cccnc1)C(=O)O; Phg = N[C@H](C(=O)O)c1ccccc1; CO = O=C([*:1])[*:2]; Bn = c1ccc(C*)cc1
Criterion: pEC50 meeting or surpassing 8. Met: YES. Not met: NO.

[Q] Given NCCCC[C@@H]1NC(=O)[C@@H](Cc2c[nH]c3ccccc23)NC(=O)[C@H](c2ccccc2)NC(=O)[C@@H]2C[C@@H](OC(=O)NCCN)CN2C(=O)[C@H](Cc2ccccc2)NC(=O)[C@H](Cc2ccc(OCc3ccccc3)cc2)NC1=O [pasireotide, reference compound] (cyclo([Hyp]([CO-Ethylenediamine])[Phg][dW]KY(Bn)F)) , state whether its pEC50 is at least 8.
[A] YES

[Q] Given NCCNC(=O)O[C@@H]1C[C@H]2C(=O)N[C@@H](c3ccccc3)C(=O)N[C@H](Cc3c[nH]c4ccccc34)C(=O)N[C@@H](CC3CCNCC3)C(=O)N[C@@H](Cc3ccc(OCc4ccccc4)cc3)C(=O)N[C@@H](Cc3ccccc3)C(=O)N2C1 [Example 1] (cyclo(F[Hyp]([CO-Ethylenediamine])[Phg][dW][Ala(piperidin-4-yl)]Y(Bn))) , state whether its pEC50 is at least 8.
[A] NO

[Q] Given NCCNC(=O)O[C@@H]1C[C@H]2C(=O)N[C@@H](Cc3ccccc3)C(=O)N[C@H](Cc3c[nH]c4ccccc34)C(=O)N[C@@H](CC3CCNCC3)C(=O)N[C@@H](Cc3ccc(OCc4ccccc4)cc3)C(=O)N[C@@H](Cc3ccccc3)C(=O)N2C1 [Example 2] (cyclo(F[Hyp]([CO-Ethylenediamine])F[dW][Ala(piperidin-4-yl)]Y(Bn))) , state whether its pEC50 is at least 8.
[A] NO

[Q] Given NCCNC(=O)O[C@@H]1C[C@H]2C(=O)N[C@@H](CCc3ccccc3)C(=O)N[C@H](Cc3c[nH]c4ccccc34)C(=O)N[C@@H](CC3CCNCC3)C(=O)N[C@@H](Cc3ccc(OCc4ccccc4)cc3)C(=O)N[C@@H](Cc3cccnc3)C(=O)N2C1 [Example 3] (cyclo([3Pal][Hyp]([CO-Ethylenediamine])[hPhe][dW][Ala(piperidin-4-yl)]Y(Bn))) , state whether its pEC50 is at least 8.
[A] YES

###

molecular target: SST5 (Homo sapiens); assay: Hit Hunter cAMP XS+ assay, SST5 activation via Gi (reduction of forskolin-stimulated cAMP); format: cell-based; settings: read-out: SST5 (EMax)
*1 amine or outer side, *2 acyl side, *3 side chain or, on linkers, in order; H or OH if unused. Where a SMILES comes first, the peptide text is derived from it. Side-chain parts run from the residue outwards. [ ]: non-standard residue; d: D form. The star is where a group is joined. Ala(piperidin-4-yl) = O=C([C@H](CC1CCN([*:3])CC1)N[*:1])[*:2]; dTrp(4-OMe) = COc1cccc2[nH]cc(C[C@@H](N)C(=O)O)c12; Ala(piperazin-1-yl) = N[C@@H](CN1CCNCC1)C(=O)O; Morpholine(3S-CO) = O=C(O)[C@@H]1COCCN1; Ethylenediamine = C(CN[*:2])N[*:1]; d(hPhe) = N[C@H](CCc1ccccc1)C(=O)O; Hyp = O=C(O)[C@@H]1C[C@@H](O)CN1; NMeF = CN[C@@H](Cc1ccccc1)C(=O)O; hPhe = N[C@@H](CCc1ccccc1)C(=O)O; 3Pal = N[C@@H](Cc1cccnc1)C(=O)O; Tic = O=C(O)[C@@H]1Cc2ccccc2CN1; CO = O=C([*:1])[*:2]; Bn = c1ccc(C*)cc1
outcomeMeasure: Emax

[Q] Fill in the blank: the reported Emax of NCCNC(=O)O[C@@H]1C[C@H]2C(=O)N[C@H](CCc3ccccc3)C(=O)N[C@@H](Cc3c[nH]c4ccccc34)C(=O)N[C@@H](CN3CCNCC3)C(=O)N[C@@H](Cc3ccc(OCc4ccccc4)cc3)C(=O)N[C@@H](Cc3cccnc3)C(=O)N2C1 [Example 33] (cyclo([3Pal][Hyp]([CO-Ethylenediamine])[d(hPhe)]W[Ala(piperazin-1-yl)]Y(Bn))) is ____.
[A] 107%

[Q] Fill in the blank: the reported Emax of CN1C(=O)[C@H](Cc2ccc(OCc3ccccc3)cc2)NC(=O)[C@H](CN2CCNCC2)NC(=O)[C@@H](Cc2c[nH]c3ccccc23)NC(=O)[C@H](CCc2ccccc2)NC(=O)[C@@H]2C[C@@H](OC(=O)NCCN)CN2C(=O)[C@@H]1Cc1ccccc1 [Example 57] (cyclo([Hyp]([CO-Ethylenediamine])[hPhe][dW][Ala(piperazin-1-yl)]Y(Bn)[NMeF])) is ____.
[A] 102%

[Q] Fill in the blank: the reported Emax of COc1cccc2[nH]cc(C[C@H]3NC(=O)[C@H](CCc4ccccc4)NC(=O)[C@@H]4COCCN4C(=O)[C@@H]4Cc5ccccc5CN4C(=O)[C@H](Cc4ccc(OCc5ccccc5)cc4)NC(=O)[C@H](CC4CCNCC4)NC3=O)c12 [Example 46] (cyclo([Tic][Morpholine(3S-CO)][hPhe][dTrp(4-OMe)][Ala(piperidin-4-yl)]Y(Bn))) is ____.
[A] 102%
